Biological target: Somatostatin receptor type 5 (Homo sapiens, UniProt P35346)
Sequence (P35346 whole entry): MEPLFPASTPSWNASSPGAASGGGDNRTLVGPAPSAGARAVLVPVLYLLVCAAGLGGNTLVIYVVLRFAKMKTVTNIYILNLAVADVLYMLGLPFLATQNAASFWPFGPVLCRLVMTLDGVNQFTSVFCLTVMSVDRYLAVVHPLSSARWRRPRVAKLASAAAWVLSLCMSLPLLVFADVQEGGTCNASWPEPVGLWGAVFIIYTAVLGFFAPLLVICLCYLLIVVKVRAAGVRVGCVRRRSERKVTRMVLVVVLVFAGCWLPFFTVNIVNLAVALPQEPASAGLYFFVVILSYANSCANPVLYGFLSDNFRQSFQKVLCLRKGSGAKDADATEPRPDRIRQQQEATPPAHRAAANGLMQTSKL
Positions of bridges follow the written chain, without caps; N, C: chain ends. Non-standard residues stand in square brackets, D forms with d. Residues, ends and D or L forms follow the SMILES beside them. *: point of attachment. d1Nal = N[C@H](Cc1cccc2ccccc12)C(=O)O; Nphe = O=C(O)CNCc1ccccc1; Ahp = NCCCCCCC(=O)O; Bn = c1ccc(C*)cc1
measured.metric: Ki (nM)

compound="CC(C)[C@H](NC(=O)[C@H](CCCCN)NC(=O)[C@@H](Cc1c[nH]c2ccccc12)NC(=O)[C@H](Cc1ccc(O)cc1)NC(=O)[C@H](Cc1ccccc1)NC(=O)[C@H](N)Cc1ccccc1)C(=O)N[C@@H](Cc1ccccc1)C(=O)N[C@H](Cc1cccc2ccccc12)C(N)=O [BIM 23056] (H-[dF]FY[dW]KVF[d1Nal]-NH2)" target_of_assay="Somatostatin receptor type 5 (Homo sapiens, UniProt P35346)" measured_metric=Ki experimental_value=12.6
compound="C[C@@H](OCc1ccccc1)[C@@H]1NC(=O)[C@H](CCCCN)NC(=O)[C@@H](Cc2c[nH]c3ccccc23)NC(=O)[C@H](Cc2ccccc2)NC(=O)CCCCCCNC1=O [c[Aha-Phe-D-Trp-Lys-Thr(Bzl)]] (cyclo([Ahp]F[dW]KT(Bn)))" target_of_assay="Somatostatin receptor type 5 (Homo sapiens, UniProt P35346)" measured_metric=Ki experimental_value=316
compound="CC(=O)N(CC(=O)NC1CSSCC(C(=O)NC(Cc2c[nH]c3ccccc23)C(N)=O)NC(=O)C(C(C)C)NC(=O)C(CCCCN)NC(=O)C(Cc2c[nH]c3ccccc23)NC(=O)C(Cc2ccc(O)cc2)NC1=O)Cc1ccccc1 (stereo not given) [RC 160II] (Ac-[Nphe]CYWKVCW-NH2; disulfide 2-7; configuration not given here)" target_of_assay="Somatostatin receptor type 5 (Homo sapiens, UniProt P35346)" measured_metric=Ki experimental_value=5.01
compound="C[C@@H](O)[C@@H]1NC(=O)[C@H](CCCCN)NC(=O)[C@@H](Cc2c[nH]c3ccccc23)NC(=O)[C@H](Cc2c[nH]c3ccccc23)NC(=O)[C@H](Cc2ccccc2)NC(=O)CCCCCCNC(=O)[C@H](Cc2ccccc2)NC1=O [L-362855] (cyclo([Ahp]FW[dW]KTF))" target_of_assay="Somatostatin receptor type 5 (Homo sapiens, UniProt P35346)" measured_metric=Ki experimental_value=0.1
compound="C[C@@H](O)[C@H](NC(=O)[C@H](Cc1ccccc1)NC(=O)[C@@H](NC(=O)[C@H](CCCCN)NC(=O)[C@@H](Cc1c[nH]c2ccccc12)NC(=O)[C@H](Cc1ccccc1)NC(=O)[C@H](Cc1ccccc1)NC(=O)[C@H](N)Cc1ccccc1)[C@@H](C)O)C(N)=O [CAS_133073-82-2] (H-[dF]FF[dW]KTFT-NH2)" target_of_assay="Somatostatin receptor type 5 (Homo sapiens, UniProt P35346)" measured_metric=Ki experimental_value=1.58
